# assayed.target: IL36R
# protocol.summary: Kd (SPR)
endpoint.name: Kd (nM)
Just the number please, in nM, no unit attached.

Record excerpt, results attached:
* unnamed (protein) chain 1: QVQLVQSGAEVKKPGASVKVSCKASGYTFTSSWIHWVKQAPGQGLEWMGEIYPGNSNTNYNENFRNKVTMTVDTSISTAYMELSRLRSDDTAVYYCTRVRFGEPYFDYWGQGTLVTVSS chain 2: QIVLTQSPGTLSLSPGERATMTCTASSSVSSSYFHWYQQKPGQAPRLWIYRTSRLASGVPDRFSGSGSGTDFTLTISRLEPEDAATYYCHQFHRSPLTFGAGTKLEIK | 1.03
* unnamed (protein) chain 1: QVQLVQSGAEVKKPGASVKVSCKASGYSFTSSWIHWVKQAPGQGLEWMGEINPGNVRTNYNENFRNKVTMTVDTSISTAYMELSRLRSDDTAVYYCTRVQFGEPYFDYWGQGTLVTVSS chain 2: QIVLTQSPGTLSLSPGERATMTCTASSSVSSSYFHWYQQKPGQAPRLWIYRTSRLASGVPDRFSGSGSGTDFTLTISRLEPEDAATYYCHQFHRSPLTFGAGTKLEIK | 1.61

Next, consider the following binder.
The binder listed as unnamed (protein) chain 1: QVQLVQSGAEVKKPGASVKVSCKASGYSFTSSWIHWVKQAPGQGLEWMGEIYPGNSNTNYNENFRNKVTMTVDTSISTAYMELSRLRSDDTAVYYCTRLRYGEPYFDYWGQGTLVTVSS chain 2: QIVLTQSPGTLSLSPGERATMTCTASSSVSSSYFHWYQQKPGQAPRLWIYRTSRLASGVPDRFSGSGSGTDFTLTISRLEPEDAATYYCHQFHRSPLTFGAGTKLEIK shows Kd equal to 6.22
